Target: Epidermal growth factor receptor (Homo sapiens, UniProt P00533)
Sequence (P00533 whole entry, the tested form may be a part): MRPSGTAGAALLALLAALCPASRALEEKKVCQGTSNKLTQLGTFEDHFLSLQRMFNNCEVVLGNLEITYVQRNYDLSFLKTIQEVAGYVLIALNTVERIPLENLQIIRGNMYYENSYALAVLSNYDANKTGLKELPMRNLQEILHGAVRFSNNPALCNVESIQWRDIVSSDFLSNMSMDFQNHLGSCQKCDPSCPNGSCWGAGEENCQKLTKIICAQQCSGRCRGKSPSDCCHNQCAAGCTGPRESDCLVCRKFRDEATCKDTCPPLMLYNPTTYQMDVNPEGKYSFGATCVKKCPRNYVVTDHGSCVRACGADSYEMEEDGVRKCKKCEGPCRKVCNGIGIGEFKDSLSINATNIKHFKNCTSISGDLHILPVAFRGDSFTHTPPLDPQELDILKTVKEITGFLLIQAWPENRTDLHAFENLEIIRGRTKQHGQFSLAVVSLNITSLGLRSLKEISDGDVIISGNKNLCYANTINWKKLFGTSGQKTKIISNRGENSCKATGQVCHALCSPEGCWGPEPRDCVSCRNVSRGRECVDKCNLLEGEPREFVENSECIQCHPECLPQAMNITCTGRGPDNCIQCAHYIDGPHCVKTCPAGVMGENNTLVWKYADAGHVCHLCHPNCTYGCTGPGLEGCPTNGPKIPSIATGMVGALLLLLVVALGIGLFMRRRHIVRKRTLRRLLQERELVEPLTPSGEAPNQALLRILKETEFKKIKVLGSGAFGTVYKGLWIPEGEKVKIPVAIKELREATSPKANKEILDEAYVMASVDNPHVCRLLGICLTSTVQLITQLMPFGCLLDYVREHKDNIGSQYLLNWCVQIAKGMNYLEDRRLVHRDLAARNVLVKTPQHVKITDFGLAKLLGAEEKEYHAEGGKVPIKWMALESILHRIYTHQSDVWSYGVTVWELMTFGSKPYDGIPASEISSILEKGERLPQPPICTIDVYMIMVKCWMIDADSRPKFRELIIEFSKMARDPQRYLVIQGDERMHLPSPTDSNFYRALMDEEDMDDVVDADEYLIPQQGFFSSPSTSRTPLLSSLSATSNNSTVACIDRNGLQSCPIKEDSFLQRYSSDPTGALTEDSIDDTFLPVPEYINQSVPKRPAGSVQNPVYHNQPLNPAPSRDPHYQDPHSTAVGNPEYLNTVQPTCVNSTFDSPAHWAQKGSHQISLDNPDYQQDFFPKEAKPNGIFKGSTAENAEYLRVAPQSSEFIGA
Experiment: Inhibition of GST-tagged human recombinant EGFR (668 to1210 residues) expressed in baculovirus using Fluorescein-Poly GT as substrate at 100 nM
recorded.metric: inhibition (%)
Answer in %, number only, no unit symbol.

Below are worked cases with known answers.
>>> observed_measurement("COC(=O)c1cc2cc(COc3cc(NC(=O)c4ccc(CN5CCN(C)CC5)cc4)ccc3C)cnc2[nH]1")
81
>>> observed_measurement("CC(=O)c1cc2cc(NCc3cc(NC(=O)c4ccc(CN5CCN(C)CC5)cc4)ccc3C)cnc2[nH]1")
99

Ask: # assay system Epidermal growth factor receptor (Homo sapiens, UniProt P00533): give inhibition of `COC(=O)c1cc2cc(NCc3cc(NC(=O)c4ccccc4OC)ccc3C)cnc2[nH]1`
Reply: 16

Ask: Please report the measured inhibition for COC(=O)c1cc2cc(NCc3cc(NC(=O)c4ccc(CN5CCC(N(C)C)C5)c(C(F)(F)F)c4)ccc3C)cnc2[nH]1 (configuration not stated) tested on Epidermal growth factor receptor (Homo sapiens, UniProt P00533).
Reply: 80

Ask: Report inhibition on Epidermal growth factor receptor (Homo sapiens, UniProt P00533) for this entry: COC(=O)c1cc2cc(/C=C/c3cc(NC(=O)c4ccc(CN5CCC(N(C)C)C5)c(C(F)(F)F)c4)ccc3C)cnc2[nH]1 (configuration not stated)
Reply: 59

Ask: // fetch inhibition for `COC(=O)c1cc2cc(NCc3cc(NC(=O)c4ccc(C)c(C(F)(F)F)c4)ccc3C)cnc2[nH]1` ; system: Epidermal growth factor receptor (Homo sapiens, UniProt P00533)
Reply: 64

Ask: Look up and report inhibition, with Epidermal growth factor receptor (Homo sapiens, UniProt P00533) as system, for `COC(=O)c1cc2cc(NCc3cc(NC(=O)c4ccc(C(F)(F)F)nc4)ccc3C)cnc2[nH]1`
Reply: 81

Ask: Output reported inhibition of the compound `COC(=O)c1cc2cc(NCc3cc(NC(=O)c4cc(N(C)C)cc(C(F)(F)F)c4)ccc3C)cnc2[nH]1` on Epidermal growth factor receptor (Homo sapiens, UniProt P00533).
Reply: 42

Ask: Tell me its inhibition on Epidermal growth factor receptor (Homo sapiens, UniProt P00533): `COC(=O)c1cc2cc(NCc3cc(NC(=O)c4ccc(Cl)c(C(F)(F)F)c4)ccc3C)cnc2[nH]1`
Reply: 64

Ask: Return reported inhibition for target or system Epidermal growth factor receptor (Homo sapiens, UniProt P00533), item CC(=O)c1cc2cc(CCc3cc(NC(=O)c4ccc(CN5CCC(N(C)C)C5)c(C(F)(F)F)c4)ccc3C)cnc2[nH]1 (configuration not stated) .
Reply: 83

Ask: Report inhibition from Epidermal growth factor receptor (Homo sapiens, UniProt P00533) testing of `COC(=O)c1cc2cc(NCc3cc(NC(=O)c4cccc(OC(F)(F)F)c4)ccc3C)cnc2[nH]1`
Reply: 39

Ask: GET inhibition | system: Epidermal growth factor receptor (Homo sapiens, UniProt P00533) | item: `Cc1cn(-c2cc(C(=O)Nc3ccc(C)c(CNc4cnc5[nH]c(C(=O)O)cc5c4)c3)cc(C(F)(F)F)c2)cn1`
Reply: 91

Ask: Give the observed inhibition of `COC(=O)c1cc2cc(NCc3cc(NC(=O)Cc4ccccc4Br)ccc3C)cnc2[nH]1` for Epidermal growth factor receptor (Homo sapiens, UniProt P00533).
Reply: -1

Ask: Determine reported inhibition for Cc1ccc(NC(=O)c2ccc(CN3CCC(N(C)C)C3)c(C(F)(F)F)c2)cc1CNc1cnc2[nH]c(C(=O)O)cc2c1 (configuration not stated) ; test system: Epidermal growth factor receptor (Homo sapiens, UniProt P00533).
Reply: 98

Ask: State the measured inhibition (Epidermal growth factor receptor (Homo sapiens, UniProt P00533)) of `COC(=O)c1cc2cc(NCc3cc(NC(=O)c4cccc(C(C)C)c4)ccc3C)cnc2[nH]1`
Reply: 52

Ask: Supply inhibition measured with Epidermal growth factor receptor (Homo sapiens, UniProt P00533) for `COC(=O)c1cc2cc(NCc3cc(NC(=O)c4ccc(CN5CCN(C)CC5)cc4)ccc3C)cnc2[nH]1` .
Reply: 81

Ask: Using Epidermal growth factor receptor (Homo sapiens, UniProt P00533) as the test system, report measured inhibition of `COC(=O)c1cc2cc(NCc3cc(NC(=O)c4ccc(-c5csc(C)n5)cc4)ccc3C)cnc2[nH]1` .
Reply: 66
